FYI, the data here is from paper PMC5540273.

# Test system: DMPK2;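 also: KINOMEscan kinase panel screen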
# Construct: gene CDC42BPG
# conditionDescription: concentration: 1 μM, replicates: in singlicate; n = 1
What %Inh was measured for each of the following?
Numbers only, in %.

compound	recordedMetric	readoutValue
CC(=O)Nc1cn2nc(Oc3cccc(NC(=O)c4cccc(C(F)(F)F)c4)c3)ccc2n1	%Inh	1

Respectfully, I request %Inh for each entry included below.
1. CC(C)c1nc(-c2ccc(F)c(NS(=O)(=O)c3c(F)cccc3F)c2)c(-c2ccnc(Nc3ccc(N4CCOCC4)nc3)n2)s1 [GSK1804250]
2. Cc1ccc(O)cc1Nc1ccnc2cc(-c3ccc(CN4CCCCC4)o3)ccc12 [GW557777]
3. CN(C)CCNS(=O)(=O)c1ccc(-c2ccnc3[nH]ccc23)cc1 [GSK977620]
4. Cc1nn2c(=O)cc(N3CCO[C@H](C)C3)nc2n1Cc1cccc(Cl)c1Cl [GSK2373693]

A)
1. 26
2. 7
3. 30
4. 0
